Kindly supply the reported Papp at 2 h, 200 µM values for the records listed here.
protocol notes: Parallel artificial membrane permeability assay
Type: in vitro ADME
assay context: PAMPA, pH 7.4, PAMPA, pH 7.4, 200 µM, 2 h; read-out: Papp
Give bare numbers, in ×10⁻⁶ cm/s.

Field: example entries. Status: answers known.
CC(=NCc1ccc(Br)cc1)c1c(C)cc(=O)n(O)c1O    3.15
CC(=NCc1cccc(Cl)c1)c1c(C)cc(=O)n(O)c1O    5.41
CC(=NOCc1ccccc1I)c1c(C)cc(=O)n(O)c1O    3.29
CC(=Nc1ccccc1Cl)c1c(C)cc(=O)n(O)c1O    2.83
CC(=NCc1ccc(Cl)cc1)c1c(C)cc(=O)n(O)c1O    3.07
CC(=NOCc1ccc(Cl)cc1Cl)c1c(C)cc(=O)n(O)c1O    4

Could you tell me Papp at 2 h, 200 µM for each of these compounds? They are listed below.
1. CC(=Nc1ccc(F)c(Cl)c1)c1c(C)cc(=O)n(O)c1O
2. CC(=NCc1ccc(F)cc1)c1c(C)cc(=O)n(O)c1O

[3.65, 1.1]

Would you be so kind as to report Papp at 2 h, 200 µM for each listed record?
1. CC(=NCc1cccc(Br)c1)c1c(C)cc(=O)n(O)c1O
2. CC(=Nc1ccc(Cl)c(Cl)c1)c1c(C)cc(=O)n(O)c1O

1.11
2.24
